TESTED_TARGET: T1, extracellular domain of activin receptor type IIB (ActRIIBecd), biotinylated (Homo sapiens (Human), UniProt Q13705 27-117, amino-biotinylated with amine-PEG3-Biotin)
T1 construct: immobilised on a streptavidin-coated sensor chip; also called biotinylated ActRIIBecd; extracellular domain of ActRIIB
T1 sequence: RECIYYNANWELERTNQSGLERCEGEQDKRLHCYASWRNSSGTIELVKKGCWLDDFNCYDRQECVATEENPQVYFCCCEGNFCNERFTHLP
ASSAY_OVERVIEW: Mean KD column of Table 5; method not restated (BIAcore as Example 5); species also listed in Table 4
Catalogue of Kd readings, one per entry.
Report the figure in nM without appending any unit label.

Known Kd results, listed for orientation:
{"BINDER": "SEQ ID NO: 316, cysteine pairs C67-C71^a, C8-C43^b, C9-C41^b, C109-C109^b (designed binder, disulfides C67-C71 (intra), C8-C43 (inter), C9-C41 (inter), C109-C109 (inter), homodimer by intermolecular disulfide) NSKDPKACCVPTELSAPSPLYLDENEKPVLKNYQDMVVHGCGCRVDFKDVGWNDHAVAPPGYHAFYCHGECPFPLADHLNSDNHAIVQTKVNSVGQAKRKGYKRLKSSCKRHPLY", "Kd, nM": 5.78}
{"BINDER": "SEQ ID NO: 254, cysteine pairs C23-C27^a, C58-C93^a, C59-C91^a (designed binder, disulfides C23-C27 (intra), C58-C93 (intra), C59-C91 (intra)) VDFKDVGWNDHAVAPPGYHAFYCHGECPFPLADHLNSDNHAIVQTKVNSVNSKDPKACCVPTELSAPSPLYLDENEKPVLKNYQDMVVHGCGCR", "Kd, nM": 19.1}
{"BINDER": "SEQ ID NO: 276, cysteine pairs C67-C71^a, C8-C41^a, C9-C43^a, C109-C109^b (designed binder, disulfides C67-C71 (intra), C8-C41 (intra), C9-C43 (intra), C109-C109 (inter), homodimer by intermolecular disulfide) NSKIPKACCVPTELSAISMLYLDENEKVVLKNYQDMVVEGCGCRVDFSDVGWNDWIVAPPGYHAFYCHGECPFPLADHLNSTNHAIVQTLVNSVAQAKHKQRKRLKSSCKRHPLY", "Kd, nM": 5.71}
{"BINDER": "SEQ ID NO: 324, cysteine pairs C15-C15^b, C79-C114^a, C80-C112^a, C44-C48^a (designed binder, disulfides C15-C15 (inter), C79-C114 (intra), C80-C112 (intra), C44-C48 (intra), homodimer by intermolecular disulfide) AQAKHKQRKRLKSSCKRHPLYVDFKDVGWNDHAVAPPGYHAFYCHGECPFPLADHLNSDNHAIVQTKVNSVNSKIPKACCVPTELSAISMLYLDENEKVVLKNYQDMVVEGCGCR", "Kd, nM": 8.42}
{"BINDER": "SEQ ID NO: 316, cysteine pairs C8-C67^a (designed binder, disulfides C8-C67 (intra)) NSKDPKACCVPTELSAPSPLYLDENEKPVLKNYQDMVVHGCGCRVDFKDVGWNDHAVAPPGYHAFYCHGECPFPLADHLNSDNHAIVQTKVNSVGQAKRKGYKRLKSSCKRHPLY", "Kd, nM": 28.9}

Look at this binder and give its reported Kd. SEQ ID NO: 332, cysteine pairs C15-C15^b, C80-C114^a, C79-C112^a, C44-C48^a (designed binder, disulfides C15-C15 (inter), C80-C114 (intra), C79-C112 (intra), C44-C48 (intra), homodimer by intermolecular disulfide) GQAKRKGYKRLKSSCKRHPLYVDFSDVGWNDWIVAPPGYHAFYCHGECPFPLADHLNSTNHAIVQTLVNSVNSKDPKACCVPTELSAPSPLYLDENEKPVLKNYQDMVVHGCGCR 5.98

Look at this binder and give its reported Kd. SEQ ID NO: 206, cysteine pairs C67-C71^a, C8-C43^b, C9-C41^b (designed binder, disulfides C67-C71 (intra), C8-C43 (inter), C9-C41 (inter), homodimer by intermolecular disulfide) NSKIPKACCVPTELSAISMLYLDENEKVVLKNYQDMVVEGCGCRVDFSDVGWNDWIVAPPGYHAFYCHGECPFPLADHLNSTNHAIVQTLVNSV 17

Look at this binder and give its reported Kd. SEQ ID NO: 200, cysteine pairs C23-C27^a, C58-C93^a, C59-C91^a (designed binder, disulfides C23-C27 (intra), C58-C93 (intra), C59-C91 (intra)) VDFSDVGWNDWIVAPPGYHAFYCHGECPFPLADHLNSTNHAIVQTLVNSVNSKIPKACCVPTELSAISMLYLDENEKVVLKNYQDMVVEGCGCR 20.1
